- System: SF-539 CNS
- measurement.notes: NCI-60 one-dose screen, 48 h (100 = growth as untreated, 0 = no growth, -100 = all killed)
- conditions.used: 10 µM unless noted
This is part of a sample that, as a whole, favours compounds with a hit. Of some 83,000 tested, about 20% had one in any assay.
metric.name: growth (%)

molecule: N#CC1=C(c2cccs2)Nc2c(c(-c3ccccc3)nn2-c2ccccc2)C12C(=O)Nc1ccc(Br)cc12 (stereo not drawn)
unit.text: %
val: -62.4
--
molecule: COc1cc(CNC(=O)C[C@H](C)CCC=C(C)C)ccc1OCc1cn(-c2cccc(C(F)(F)F)c2)nn1
unit.text: %
val: 16.3
--
molecule: Fc1ccccc1CNc1nc(SCCN2CCOCC2)nc2c1cnn2CC(Cl)c1ccc(Br)cc1 (stereo not drawn)
unit.text: %
val: -3.45
--
molecule: CCCCC[C@@H]1C/C=C(\C)[C@@H](O)C(C)(C)C(=O)[C@@H](C)/C=C(\C)[C@@H]2C[C@H](O)C[C@](O)(CC(=O)O1)O2
unit.text: %
val: 73.8
--
molecule: COC(=O)c1ccc(-c2c(-c3ccccc3)c(F)c3oc(C(=O)OC)c(N)c3c2-c2ccccc2)cc1
unit.text: %
val: 90
--
molecule: Oc1cncc(-c2ccc3ncnc(N4CCc5cc(F)c(Cl)cc54)c3c2)c1
unit.text: %
val: 56
--
molecule: CC(C)CN1C(=O)/C(=C\C(=O)c2cc3ccccc3oc2=O)c2ccccc21
unit.text: %
val: 102
--
molecule: O=C(N/N=C/c1c[nH]c2ccccc12)Nc1ccc(F)c(Cl)c1
unit.text: %
val: 27.3
--
molecule: c1n[nH]cc1-c1nc2ccc3cn[nH]c3c2c2c1CCCC2
unit.text: %
val: 80.8
--
molecule: O=C(N/N=C/c1ccc(-c2cccc([N+](=O)[O-])c2)s1)c1[nH]c2ccc(Br)cc2c1-c1ccccc1
unit.text: %
val: 96.6
--
molecule: COc1ccc(Nc2ncnc3sc4c(c23)CCN(Cc2ccccc2)C4)cc1
unit.text: %
val: 91.3
--
molecule: O=C(CSc1nc2sc3c(c2c(=O)n1-c1ccc(Cl)cc1)CCCC3)NNC(=O)c1ccc(Br)cc1
unit.text: %
val: -29.5
--
molecule: COc1ccc(-c2nc3ccc(-c4nnc(SCC(=O)Nc5ccc(/C(C)=N\O)cc5)o4)cc3[nH]2)cc1
unit.text: %
val: -53.4
--
molecule: Nc1cc(-c2c[nH]c3ccc(Cl)cc23)nc2cc(-c3c[nH]c4ccccc34)nn12
unit.text: %
val: -81.5
--
molecule: COc1cc(-c2ccc3ncnc(N4CCc5ccc(Cl)cc54)c3c2)cnc1Cl
unit.text: %
val: 24.8
--
molecule: COc1ccc(-c2nc3ccc(-c4nnc(SCc5ccccc5)o4)cc3[nH]2)cc1OC
unit.text: %
val: -44.5
--
molecule: CCOc1ccccc1[C@H]1C(C(=O)c2ccc(Cl)cc2)C2(N[C@@H]1c1ccccc1)C(=O)Nc1ccccc12 (stereo partly drawn)
unit.text: %
val: 28
--
molecule: CCCCCCCOc1ccc(S(=O)(=O)Nc2ccc(C)c(F)c2C(=O)O)cc1
unit.text: %
val: 102
